Hi there, I'd appreciate the recorded IC50 for every entry that follows.
Write the number in µM without appending the unit.

stdin: What value of IC50 on HDAC9 (Homo sapiens, UniProt Q9UKV0) does COc1ccc(-c2cc(CN3c4ccccc4Sc4ccc(C#N)cc43)ccc2C(=O)NO)cc1 [Compound 19b] have?
stdout: 5.34

stdin: What value of IC50 on HDAC9 (Homo sapiens, UniProt Q9UKV0) does `O=C(NO)c1ccc(CN2c3ccccc3Sc3ccccc32)cc1-c1ccccc1` have?
stdout: 0.42

stdin: What value of IC50 on HDAC9 (Homo sapiens, UniProt Q9UKV0) does `O=C(NO)c1ccc(CN2CCCc3ccccc3C2)cc1-c1ccccc1` have?
stdout: 0.95

stdin: What value of IC50 on HDAC9 (Homo sapiens, UniProt Q9UKV0) does `COc1ccc2c(c1)N(Cc1ccc(C(=O)NO)c(-c3ccccc3)c1)c1ccccc1S2` have?
stdout: 0.64

stdin: What value of IC50 on HDAC9 (Homo sapiens, UniProt Q9UKV0) does `O=C(NO)c1ccc(CN2c3ccccc3Sc3ccc(Cl)cc32)cc1-c1ccccc1` have?
stdout: 0.2

stdin: What value of IC50 on HDAC9 (Homo sapiens, UniProt Q9UKV0) does N#Cc1ccc2c(c1)N(Cc1ccc(C(=O)NO)c(-c3ccc(F)cc3)c1)c1ccccc1S2 [Compound 19c] have?
stdout: 0.72

stdin: What value of IC50 on HDAC9 (Homo sapiens, UniProt Q9UKV0) does COc1cc(-c2cc(CN3c4ccccc4Sc4ccc(C#N)cc43)ccc2C(=O)NO)cc(OC)c1OC [Compound 19a] have?
stdout: 18.6

###

measured.quantity: log10 IC50 (log10 of the value in nM)
// do not treat as linear: log10 of IC50, unit nM

stdin: What value of log10 IC50 on HDAC4 (Homo sapiens) does `NC(=O)c1ccc2c(c1)N(Cc1ccc(C(=O)NO)c(-c3ccccc3)c1)c1ccccc1S2` have?
stdout: 2.30

stdin: What value of log10 IC50 on HDAC4 (Homo sapiens) does N#Cc1ccc2c(c1)N(Cc1ccc(C(=O)NO)c(-c3ccc(F)cc3)c1)c1ccccc1S2 [Compound 19c] have?
stdout: 3.00

stdin: What value of log10 IC50 on HDAC4 (Homo sapiens) does `NC(=NO)c1ccc2c(c1)N(Cc1ccc(C(=O)NO)c(-c3ccccc3)c1)c1ccccc1S2` have?
stdout: 2.26

stdin: What value of log10 IC50 on HDAC4 (Homo sapiens) does `CC(=NO)c1ccc2c(c1)N(Cc1ccc(C(=O)NO)c(-c3ccccc3)c1)c1ccccc1S2` have?
stdout: 2.76

stdin: What value of log10 IC50 on HDAC4 (Homo sapiens) does `O=C(NO)c1ccc(CNC23CC4CC(CC(C4)C2)C3)cc1-c1ccccc1` have?
stdout: 4.27

stdin: What value of log10 IC50 on HDAC4 (Homo sapiens) does `O=C(NO)c1ccc(CN2c3ccccc3Sc3ccccc32)cc1-c1ccccc1` have?
stdout: 2.68

stdin: What value of log10 IC50 on HDAC4 (Homo sapiens) does `O=C(NO)c1ccc(CN2c3ccccc3Sc3ccc(Cl)cc32)cc1-c1ccccc1` have?
stdout: 2.45

stdin: What value of log10 IC50 on HDAC4 (Homo sapiens) does `O=C(NO)c1ccc(CN2c3ccccc3Sc3ccc(C(F)(F)F)cc32)cc1-c1ccccc1` have?
stdout: 2.45

stdin: What value of log10 IC50 on HDAC4 (Homo sapiens) does COc1ccc(-c2cc(CN3c4ccccc4Sc4ccc(C#N)cc43)ccc2C(=O)NO)cc1 [Compound 19b] have?
stdout: 3.80
